- Test system: P. obtusus P2O
- Test details: Relative activities of purified P. obtusus P2O on pyranose substrates
- Type: biochemical
- Experimental setup: about 1% (w/v) substrate concentration; D-glucose = 100
Measurement name: Relative activity of the enzyme on substrate
API doc: respond with a numeric literal and nothing else, no unit.

Illustrative cases are given below, each with its answer.
INSERT INTO measurements (smiles_representation, recorded_value) VALUES
  ('O=C[C@H](O)[C@@H](O)[C@H](O)[C@H](O)CO', 100),
  ('O=C1O[C@H](CO)[C@@H](O)[C@H](O)[C@H]1O', 12),
  ('O=C(CO)[C@@H](O)[C@H](O)[C@@H](O)CO', 80);

Write down the reported Relative activity of the enzyme on substrate of "O=C[C@H](O)[C@@H](O)[C@H](O)CO" , test system: P. obtusus P2O. 48

* * *

- Test system: L. betulinus P2O
- Test details: Relative activities of purified L. betulinus P2O on pyranose substrates
- Format: biochemical
- Experimental setup: 20 mM substrate concentration; D-glucose = 100
Measurement name: Relative activity of the enzyme on substrate

Illustrative cases are given below, each with its answer.
INSERT INTO measurements (compound, system, recorded_value) VALUES
  ('O=C1O[C@H](CO)[C@@H](O)[C@H](O)[C@H]1O [delta-D-gluconolactone, D-gluconic acid delta-lactone]', 'L. betulinus P2O', 26),
  ('O=C[C@H](O)[C@@H](O)[C@H](O)[C@H](O)CO [D-glucose]', 'L. betulinus P2O', 100),
  ('O=C[C@H](O)[C@@H](O)[C@H](O)CO [D-xylose]', 'L. betulinus P2O', 43);

Let us move to another entry and its Relative activity of the enzyme on substrate.
What value of measured Relative activity of the enzyme on substrate is listed for O=C(CO)[C@@H](O)[C@H](O)[C@@H](O)CO [L-sorbose] ? 43
